Data provenance is patent US9855257B2.

# Target or test system: rat EP4 receptor (Rattus norvegicus, UniProt P43114)
# Construct: its translated region was integrated into the expression vector pShooter (Invitrogen)
# Sequence (P43114 whole entry): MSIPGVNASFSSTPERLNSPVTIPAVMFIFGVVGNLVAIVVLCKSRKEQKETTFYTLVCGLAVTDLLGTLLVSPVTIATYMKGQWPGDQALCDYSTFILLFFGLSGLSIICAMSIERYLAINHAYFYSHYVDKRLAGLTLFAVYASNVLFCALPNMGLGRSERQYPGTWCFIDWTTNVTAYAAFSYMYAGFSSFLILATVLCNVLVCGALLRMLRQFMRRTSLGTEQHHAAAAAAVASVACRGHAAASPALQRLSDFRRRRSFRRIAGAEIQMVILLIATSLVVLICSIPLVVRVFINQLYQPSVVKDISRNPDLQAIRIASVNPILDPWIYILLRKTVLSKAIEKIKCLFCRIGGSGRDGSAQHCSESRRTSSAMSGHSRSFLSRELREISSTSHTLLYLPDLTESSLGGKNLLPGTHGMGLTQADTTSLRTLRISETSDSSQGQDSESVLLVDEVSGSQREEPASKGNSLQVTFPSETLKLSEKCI
# Experiment description: Rat EP4 receptor antagonistic action by the reporter assay method
# Conditions used: COS-7 cells expressing rat EP4 receptor, CRE-LUC reporter, PGE2 1×10^−8 mol/L; geometric mean of three cases; read-out: Intensity of EP4 Receptor Antagonistic Activity IC50
Each entry below lists one item and its recorded log10 of IC50 value.
Plainly stated, the numbers are log10 of IC50 given in nM.

Examples with their reported log10 of IC50 follow.
Compound: CC(C)(O)C#Cc1nc(Cl)n(Cc2ccc(C(F)(F)F)cc2)c1C(=O)NCc1ccc(C(=O)O)cc1 [Compound 2]
Target or test system: rat EP4 receptor (Rattus norvegicus, UniProt P43114)
Observed value: 1.15
//
Compound: COC(C)(C)C#Cc1nc(Cl)n(CCOc2ccc(Cl)cc2)c1C(=O)NCC1CCC(C(=O)O)CC1 (stereo not shown) [Compound 40]
Target or test system: rat EP4 receptor (Rattus norvegicus, UniProt P43114)
Observed value: 0.98
//
Compound: COC(C)(C)C#Cc1nc(Cl)n(Cc2ccc(C)cc2)c1C(=O)NC1(c2ccc(C(=O)O)cc2)CC1 [Compound 67]
Target or test system: rat EP4 receptor (Rattus norvegicus, UniProt P43114)
Observed value: 0.32
//
Compound: COC(C)(C)C#Cc1nc(Cl)n(Cc2ccc(C(F)(F)F)cc2)c1C(=O)NCc1ccc(C(=O)O)cc1 [Compound 41]
Target or test system: rat EP4 receptor (Rattus norvegicus, UniProt P43114)
Observed value: 0.92
//
Compound: CC(C)(O)C#Cc1nc(C2CC2)n(Cc2ccc(C(F)(F)F)cc2)c1C(=O)NCc1ccc(C(=O)O)cc1 [Compound 20]
Target or test system: rat EP4 receptor (Rattus norvegicus, UniProt P43114)
Observed value: 1.81
//
Compound: COC(C)(C)C#Cc1nc(Cl)n(Cc2ccc(C)cc2)c1C(=O)NC[C@H]1CC[C@H](C(=O)O)CC1 [Compound 22]
Target or test system: rat EP4 receptor (Rattus norvegicus, UniProt P43114)
Observed value: 1.07
//
Compound: CC(C)(O)C#Cc1nc(Cl)n(Cc2ccc(C(F)(F)F)cc2)c1C(=O)NC1(c2ccc(C(=O)O)cc2)CC1 [Compound 4]
Target or test system: rat EP4 receptor (Rattus norvegicus, UniProt P43114)
Observed value: 0.48
//
Compound: Cc1ccc(Cn2c(Cl)nc(C#CC(C)(C)O)c2C(=O)NC2(c3ccc(C(=O)O)cc3)CC2)cc1 [Compound 68]
Target or test system: rat EP4 receptor (Rattus norvegicus, UniProt P43114)
Observed value: 0.79

[ask] Dear colleague, I am looking for the recorded log10 of IC50 of the following compound: COC(C)(C)C#Cc1nc(Cl)n(Cc2cccc(OC(F)F)c2)c1C(=O)NCc1ccc(C(=O)O)cc1 [Compound 54]
[reply] 1.21

[ask] Fill in the blank: the reported log10 of IC50 of COC(C)(C)C#Cc1nc(C(F)F)n(CCOc2ccc(Cl)cc2)c1C(=O)NCc1ccc(C(=O)O)cc1 [Compound 64] is ____.
[reply] 1.42

[ask] Given the entry COC(C)(C)C#Cc1nc(Cl)n(Cc2ccc(C(F)(F)F)cc2)c1C(=O)NC1(c2ccc(C(=O)O)cc2)CC1 [Compound 42] , report its measured log10 of IC50.
[reply] 0.23

[ask] Form field: reported log10 of IC50 of COC(C)(C)C#Cc1nc(C2CC2)n(CCOc2ccc(Cl)cc2)c1C(=O)NCc1ccc(C(=O)O)cc1 [Compound 47]
[reply] 1.54

[ask] Query: log10 of IC50; subject: COC(C)(C)C#Cc1nc(Cl)n(Cc2ccc(OC(F)F)cc2)c1C(=O)NCC1CCC(C(=O)O)CC1 (stereo not shown) [Compound 51]
[reply] 0.90

[ask] So what does the record say about log10 of IC50 for COC(C)(C)C#Cc1nc(Cl)n(Cc2ccc(F)cc2)c1C(=O)NCc1ccc(C(=O)O)cc1 [Compound 56] ?
[reply] 1.70
